Source listed as patent EP4671273A1.

kon overview
biological target: T1, Recombinant hIL-21-Fc (AcroBiosystems) (human, UniProt Q9HBE4 30-162); assay: SPR, Fab on captured rhIL-21-Fc
T1 construct: bought; also called rhIL-21; not shown: Fc of the bought reagent, not described
T1 sequence (Q9HBE4 30-162): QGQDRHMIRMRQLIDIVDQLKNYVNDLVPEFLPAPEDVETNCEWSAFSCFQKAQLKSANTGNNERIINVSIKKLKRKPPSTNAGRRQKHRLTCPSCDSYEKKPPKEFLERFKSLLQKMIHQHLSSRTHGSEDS
Write the value in M⁻¹ s⁻¹ as a bare number.

**Q:** Give me measured kon, please, for this binder: ZAP122m4 Fab (Fab, V domains shown, Fab) VH: QVQLQESGPGLVKPSETLSLTCTVSGGSISSDFWGWIRQPPGKGLEWIGYISSRGSTNYNPSLKRRVTISVDTSRNQFSLKLSSVTAADTAVYYCARSAGVTDFDFWGQGTLVTVSS VL: DIQMTQSPSSVSASVGDRVTITCRASQGISSWLAWYQHKPGKAPKLLIYVASSLQSGVPSRFSGSGSGTDFTLTISSLQPEDFATYYCAQANSFPLTFGGGTKVEIK
**A:** 72400

**Q:** Give me measured kon, please, for this binder: ZAP122m8 Fab (Fab, V domains shown, Fab) VH: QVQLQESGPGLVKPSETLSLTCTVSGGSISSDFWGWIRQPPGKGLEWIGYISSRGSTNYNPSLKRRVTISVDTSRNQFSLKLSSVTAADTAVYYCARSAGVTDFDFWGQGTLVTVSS VL: DIQMTQSPSSVSASVGDRVTITCRASQGISSWLAWYQHKPGKAPKLLIYVASSLQSGVPSRFSGSGSGTDFTLTISSLQPEDFATYYCQQANSAPLTFGGGTKVEIK
**A:** 264000

**Q:** Give me measured kon, please, for this binder: ZAP122m7 Fab (Fab, V domains shown, Fab) VH: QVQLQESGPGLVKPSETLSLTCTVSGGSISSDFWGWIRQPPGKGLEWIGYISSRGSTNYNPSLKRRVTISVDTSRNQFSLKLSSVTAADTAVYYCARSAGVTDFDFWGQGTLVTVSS VL: DIQMTQSPSSVSASVGDRVTITCRASQGISSWLAWYQHKPGKAPKLLIYVASSLQSGVPSRFSGSGSGTDFTLTISSLQPEDFATYYCQQANAFPLTFGGGTKVEIK
**A:** 387000

**Q:** Give me measured kon, please, for this binder: ZAP122m17 Fab (Fab, V domains shown, Fab; also called clone m17) VH: QVQLQESGPGLVKPSETLSLTCTVSGGSISSDFWGWIRQPPGKGLEWIGYISSSGSTNYNPSLKRRVTISVDTSRNQFSLKLSSVTAADTAVYYCARSAGVTDFDFWGQGTLVTVSS VL: DIQMTQSPSSVSASVGDRVTITCRASQGISSWLAWYQHKPGKAPKLLIYVASSLQSGVPSRFSGSGSGTDFTLTISSLQPEDFATYYCQQANSFPLTFGGGTKVEIK
**A:** 334000

**Q:** Give me measured kon, please, for this binder: ZAP122m27 Fab (Fab, V domains shown, Fab) VH: QVQLQESGPGLVKPSETLSLTCTVSGGSISSDFWGWIRQPPGKGLEWIGYISSRGSTNYNPSLKRRVTISVDTSRNQFSLKLSSVTAADTAVYYCARSAGVTDFDAWGQGTLVTVSS VL: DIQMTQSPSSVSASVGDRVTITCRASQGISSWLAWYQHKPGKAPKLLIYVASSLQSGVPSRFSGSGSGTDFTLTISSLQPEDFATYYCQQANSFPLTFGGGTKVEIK
**A:** 414000

**Q:** Give me measured kon, please, for this binder: ZAP122 Fab (Fab, V domains shown, Fab; also called ZAP122 wt) VH: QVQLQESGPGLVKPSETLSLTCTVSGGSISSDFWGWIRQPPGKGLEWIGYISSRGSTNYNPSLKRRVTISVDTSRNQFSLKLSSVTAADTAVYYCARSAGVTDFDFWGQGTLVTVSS VL: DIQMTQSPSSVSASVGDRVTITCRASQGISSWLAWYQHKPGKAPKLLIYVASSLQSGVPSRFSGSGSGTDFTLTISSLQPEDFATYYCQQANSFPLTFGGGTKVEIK
**A:** 377000

**Q:** Give me measured kon, please, for this binder: ZAP122m6 Fab (Fab, V domains shown, Fab) VH: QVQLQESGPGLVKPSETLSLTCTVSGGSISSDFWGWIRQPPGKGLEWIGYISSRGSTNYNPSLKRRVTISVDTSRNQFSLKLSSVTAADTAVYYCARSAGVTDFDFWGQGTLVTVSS VL: DIQMTQSPSSVSASVGDRVTITCRASQGISSWLAWYQHKPGKAPKLLIYVASSLQSGVPSRFSGSGSGTDFTLTISSLQPEDFATYYCQQAASFPLTFGGGTKVEIK
**A:** 379000
